# TEST CONTEXT: rat, in vivo, 100 mg/kg
# Method: The AGs were administered to the rats according to the dose levels depicted in Table 6. The animals of Groups 11-13 were housed until day 15 even though their dosing ended on day 5, such that all animals were necropsied on the same day. Blood was collected in EDTA at days 0, 6, 11, and 15. 750 uL blood samples were collected and aliquoted into a lithium heparin tube and an EDTA tube. Clinical chemistry analysis was performed using the Idexx VETTEST 8008 system. […]
PROPERTY LABEL: Body weight Day 7 (g)
Expressed in g, but write only the number.

Report Body weight Day 7, nothing else, for this compound: NC[C@H]1O[C@H](O[C@H]2[C@H](O)[C@@H](O[C@H]3O[C@H](CO)[C@@H](O)[C@H](N)[C@H]3O)[C@H](N)C[C@@H]2N)[C@H](N)C[C@@H]1O [Tobramycin, tobramycin]
281
